Entries and their viability, T/C values follow.
- Tested on: 186277-243-T-J2-PDC multi-cell spheroid viability
- Run description: Anticancer human tumor 186277-243-T-J2-PDC patient-derived colon adenocarcinoma cell line growth inhibition [PI3K]
- Test parameters: second compound 3.16 µM; first compound 0.001 µM; hits give low values
Report the value in % with no unit label.

| Compound | Result unit | viability, T/C |
| --- | --- | --- |
| CC(C)n1nc(-c2ccc3oc(N)nc3c2)c2c(N)ncnc21 + Cc1nc(NC(=O)N2CCCC2C(N)=O)sc1-c1ccnc(C(C)(C)C(F)(F)F)c1 | % | 56.8 |

**Q:** Form field: reported viability, T/C of CC(C)n1nc(-c2ccc3oc(N)nc3c2)c2c(N)ncnc21 + CC(Nc1ncnc2nc[nH]c12)c1cc2cccc(Cl)c2c(=O)n1-c1ccccc1
**A:** 90.8

**Q:** How about this compound: Cn1ncnc1[C@H]1c2n[nH]c(=O)c3cc(F)cc(c23)N[C@@H]1c1ccc(F)cc1 + CC(Nc1ncnc2nc[nH]c12)c1cc2cccc(Cl)c2c(=O)n1-c1ccccc1
**A:** 107

**Q:** How about this compound: CC(=O)c1c(C)c2cnc(Nc3ccc(N4CCNCC4)cn3)nc2n(C2CCCC2)c1=O + CC(Nc1ncnc2nc[nH]c12)c1cc2cccc(Cl)c2c(=O)n1-c1ccccc1
**A:** 104

**Q:** How about this compound: CC(=O)c1c(C)c2cnc(Nc3ccc(N4CCNCC4)cn3)nc2n(C2CCCC2)c1=O + Cc1nc(NC(=O)N2CCCC2C(N)=O)sc1-c1ccnc(C(C)(C)C(F)(F)F)c1
**A:** 53.6

**Q:** How about this compound: Cn1ncnc1[C@H]1c2n[nH]c(=O)c3cc(F)cc(c23)N[C@@H]1c1ccc(F)cc1 + Cc1nc(NC(=O)N2CCCC2C(N)=O)sc1-c1ccnc(C(C)(C)C(F)(F)F)c1
**A:** 52.7

----------
- System: 186277-243-T-J2-PDC multi-cell spheroid viability
- Run description: Anticancer human tumor 186277-243-T-J2-PDC cell line growth inhibition [PI3K];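 further: spheroids exposed to compounds for seven days before viability reading; 100% = DMSO vehicle control viability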
- Test parameters: second compound 10 µM; first compound 1 µM; hits give low values
Measured endpoint: viability, T/C (%)
Report the value in % with no unit label.

| Compound | viability, T/C [%] |
| --- | --- |
| Cn1ncc(Cl)c1-c1cc(C(=O)NC(CN)Cc2cccc(F)c2)sc1Cl (stereo unspecified) + CC(Nc1ncnc2nc[nH]c12)c1cc2cccc(Cl)c2c(=O)n1-c1ccccc1 | 25 |
| CNC(=O)c1ccc(N2C(=S)N(c3ccc(C#N)c(C(F)(F)F)c3)C(=O)C2(C)C)cc1F + Cc1nc(NC(=O)N2CCCC2C(N)=O)sc1-c1ccnc(C(C)(C)C(F)(F)F)c1 | 14 |
| C[C@@H](NC(=O)c1ncnc(N)c1Cl)c1ncc(C(=O)Nc2cc(C(F)(F)F)c(Cl)cn2)s1 + Cc1nc(NC(=O)N2CCCC2C(N)=O)sc1-c1ccnc(C(C)(C)C(F)(F)F)c1 | 4.89 |

**Q:** Form field: reported viability, T/C of C#Cc1c(F)ccc2cc(O)cc(-c3ncc4c(N5CC6CCC(C5)N6)nc(OCC56CCCN5CC(F)C6)nc4c3F)c12 (stereo unspecified) + Cc1nc(NC(=O)N2CCCC2C(N)=O)sc1-c1ccnc(C(C)(C)C(F)(F)F)c1
**A:** 2

**Q:** How about this compound: CCCS(=O)(=O)Nc1ccc(F)c(C(=O)c2c[nH]c3ncc(-c4ccc(Cl)cc4)cc23)c1F + CC(Nc1ncnc2nc[nH]c12)c1cc2cccc(Cl)c2c(=O)n1-c1ccccc1
**A:** 105

**Q:** How about this compound: C#Cc1c(F)ccc2cc(O)cc(-c3ncc4c(N5CC6CCC(C5)N6)nc(OCC56CCCN5CC(F)C6)nc4c3F)c12 (stereo unspecified) + CC(Nc1ncnc2nc[nH]c12)c1cc2cccc(Cl)c2c(=O)n1-c1ccccc1
**A:** 6.7

**Q:** How about this compound: CNC(=O)c1ccc(N2C(=S)N(c3ccc(C#N)c(C(F)(F)F)c3)C(=O)C2(C)C)cc1F + CC(Nc1ncnc2nc[nH]c12)c1cc2cccc(Cl)c2c(=O)n1-c1ccccc1
**A:** 96.6

**Q:** How about this compound: Cn1nccc1Nc1nccc(-c2ccn(C(CO)c3ccc(Cl)c(F)c3)c(=O)c2)n1 (stereo unspecified) + Cc1nc(NC(=O)N2CCCC2C(N)=O)sc1-c1ccnc(C(C)(C)C(F)(F)F)c1
**A:** 8.15

**Q:** How about this compound: CC1(C)CCC(Nc2ncc(C(F)(F)F)c(-c3c[nH]c4c(P(C)(C)=O)c(C#N)ccc34)n2)CN1 (stereo unspecified) + Cc1nc(NC(=O)N2CCCC2C(N)=O)sc1-c1ccnc(C(C)(C)C(F)(F)F)c1
**A:** 4.41

**Q:** How about this compound: Cn1nccc1Nc1nccc(-c2ccn(C(CO)c3ccc(Cl)c(F)c3)c(=O)c2)n1 (stereo unspecified) + CC(Nc1ncnc2nc[nH]c12)c1cc2cccc(Cl)c2c(=O)n1-c1ccccc1
**A:** 27.5

**Q:** How about this compound: Cn1ncc(Cl)c1-c1cc(C(=O)NC(CN)Cc2cccc(F)c2)sc1Cl (stereo unspecified) + Cc1nc(NC(=O)N2CCCC2C(N)=O)sc1-c1ccnc(C(C)(C)C(F)(F)F)c1
**A:** 6.6

**Q:** How about this compound: CCCS(=O)(=O)Nc1ccc(F)c(C(=O)c2c[nH]c3ncc(-c4ccc(Cl)cc4)cc23)c1F + Cc1nc(NC(=O)N2CCCC2C(N)=O)sc1-c1ccnc(C(C)(C)C(F)(F)F)c1
**A:** 35.3

**Q:** How about this compound: C=CC(=O)N1CCN(c2nc(=O)n(-c3c(C)ccnc3C(C)C)c3nc(-c4c(O)cccc4F)c(F)cc23)C(C)C1 (stereo unspecified) + Cc1nc(NC(=O)N2CCCC2C(N)=O)sc1-c1ccnc(C(C)(C)C(F)(F)F)c1
**A:** 9.26

**Q:** How about this compound: C[C@@H](NC(=O)c1ncnc(N)c1Cl)c1ncc(C(=O)Nc2cc(C(F)(F)F)c(Cl)cn2)s1 + CC(Nc1ncnc2nc[nH]c12)c1cc2cccc(Cl)c2c(=O)n1-c1ccccc1
**A:** 95.5

**Q:** How about this compound: CCN1CCN(Cc2ccc(Nc3ncc(F)c(-c4cc(F)c5nc(C)n(C(C)C)c5c4)n3)nc2)CC1 + CC(Nc1ncnc2nc[nH]c12)c1cc2cccc(Cl)c2c(=O)n1-c1ccccc1
**A:** 78.3

**Q:** How about this compound: CC1(C)CCC(Nc2ncc(C(F)(F)F)c(-c3c[nH]c4c(P(C)(C)=O)c(C#N)ccc34)n2)CN1 (stereo unspecified) + CC(Nc1ncnc2nc[nH]c12)c1cc2cccc(Cl)c2c(=O)n1-c1ccccc1
**A:** 53.8

**Q:** How about this compound: CC(C)NCC(C(=O)N1CCN(c2ncnc3c2C(C)CC3O)CC1)c1ccc(Cl)cc1 (stereo unspecified) + Cc1nc(NC(=O)N2CCCC2C(N)=O)sc1-c1ccnc(C(C)(C)C(F)(F)F)c1
**A:** 9.25

**Q:** How about this compound: C=CC(=O)N1CCN(c2nc(=O)n(-c3c(C)ccnc3C(C)C)c3nc(-c4c(O)cccc4F)c(F)cc23)C(C)C1 (stereo unspecified) + CC(Nc1ncnc2nc[nH]c12)c1cc2cccc(Cl)c2c(=O)n1-c1ccccc1
**A:** 76.3
